EC50 values by entry
- System: primary neurons
- TEST_DETAILS: TMRM fluorescence assay of inner mitochondrial membrane potential (ΔΨm)
- SETTINGS: Mus musculus, Primary neuron, read-out: TMRM-EC50
- From the text: Mitochondrial dyes. To assay the electrochemical potential across the inner mitochondrial membrane of cultured cells, we used the cell-permeant dye tetramethylrhodamine methyl ester (TMRM). […] Cells were washed 2× with pre-warmed fresh feeding media without B27 before measurements with a plate reader. A CLARIOstar (BMG LABTECH) microplate reader was used to measure fluorescence of TMRM and luminescence produced from the ATP. Mitochondrial membrane potential (Δψm) and luminescence-based ATP assays. […]
Structures can show the parent of a compound that is named as a salt.
Write the answer as a number in nM, unit excluded.

// known answers, use as guide
[
  {
    "COMPOUND": "O=C(c1ccc(F)cc1)C1CCN(CCn2c(=O)[nH]c3ccccc3c2=O)CC1 [ketanserin tartrate]",
    "MEASURED_ON": "primary neurons",
    "MEASURE_UNIT": "nM",
    "EC50": 1300
  },
  {
    "COMPOUND": "CCN(CC)CC(=O)Nc1c(C)cccc1C [lidocaine hydrochloride]",
    "MEASURED_ON": "primary neurons",
    "MEASURE_UNIT": "nM",
    "EC50": 1890
  },
  {
    "COMPOUND": "OC(CCN1CCCCC1)(c1ccccc1)C1CCCCC1 (stereo not shown) [trihexyphenidyl hydrochloride]",
    "MEASURED_ON": "primary neurons",
    "MEASURE_UNIT": "nM",
    "EC50": 3200
  }
]

Q) State the recorded EC50 for this entry: OC(CCN1CCCC1)(c1ccccc1)C1CCCCC1 (stereo not shown) [procyclidine hydrochloride]
A) 850

Q) State the recorded EC50 for this entry: CCCCOc1cc(C(=O)OCCN(CC)CC)ccc1N [benoxinate hydrochloride]
A) 490

Q) State the recorded EC50 for this entry: O=c1[nH]c2ccccc2n1C1CCN(CCCC(c2ccc(F)cc2)c2ccc(F)cc2)CC1 [pimozide]
A) 130

Q) State the recorded EC50 for this entry: COc1ccccc1N1CCN(CC(O)COc2cccc3ccccc23)CC1 (stereo not shown)
A) 2240

Q) State the recorded EC50 for this entry: COC(=O)[C@H]1[C@H]2C[C@@H]3c4[nH]c5cc(OC)ccc5c4CCN3C[C@H]2C[C@@H](OC(=O)c2cc(OC)c(OC)c(OC)c2)[C@@H]1OC
A) 640

Q) State the recorded EC50 for this entry: OC1(c2ccc(Cl)c(C(F)(F)F)c2)CCN(CCCC(c2ccc(F)cc2)c2ccc(F)cc2)CC1
A) 50

Q) State the recorded EC50 for this entry: CNCCC=C1c2ccccc2CCc2ccccc21 [nortriptyline hydrochloride]
A) 550
